experiment: Toxicokinetics test in the satellite groups (UPLC-MS/MS of rat plasma); format: in vivo; conditions: male, SD, rat, plasma, po, male rats, Day 28, highest dose (berberine 72.08, epiberberine 7.42, coptisine 7.42, palmatine 18.26, jatrorrhizine 2.80, columbamine 5.93 mg/kg)
Measured Endpoint: Tmax (h)
One number for each entry, in h.

COc1cc2c(cc1O)-c1cc3ccc(OC)c(OC)c3c[n+]1CC2; 4.08

Continue with the compound presented below.
Tmax for COc1cc2c(cc1O)CC[n+]1cc3c(OC)c(OC)ccc3cc1-2 ? 1.17

###

assay: Toxicokinetics test in the satellite groups (UPLC-MS/MS of rat plasma); type: in vivo; settings: female, SD, rat, plasma, po, female rats, Day 28, middle dose (berberine 24.03, epiberberine 2.47, coptisine 2.47, palmatine 6.09, jatrorrhizine 0.93, columbamine 1.98 mg/kg); read-out: T1/2 mean (converted)
Measured Endpoint: half-life (h)
Answers are plain numbers, in h.

COc1cc2c(cc1O)-c1cc3ccc(OC)c(OC)c3c[n+]1CC2; 10.7

Continue with the compound presented below.
half-life for COc1cc2c(cc1O)CC[n+]1cc3c(OC)c(OC)ccc3cc1-2 ? 5.33

###

test: Toxicokinetics test in the satellite groups (UPLC-MS/MS of rat plasma); format: in vivo; details: female, SD, rat, plasma, po, female rats, Day 1, lowest dose (berberine 8.01, epiberberine 0.82, coptisine 1.38, palmatine 2.03, jatrorrhizine 0.31, columbamine 0.66 mg/kg); read-out: AUC0-t mean
Measured Endpoint: AUC(0-t) (ng·h/mL)
Answers are plain numbers, in ng·h/mL.

COc1cc2c(cc1O)CC[n+]1cc3c(OC)c(OC)ccc3cc1-2; 25.6

Continue with the compound presented below.
AUC(0-t) for COc1cc2c(cc1O)-c1cc3ccc(OC)c(OC)c3c[n+]1CC2 ? 71.4

###

Give measured AUC(0-t) for each item. Keep answers brief.
Test: Toxicokinetics test in the satellite groups (UPLC-MS/MS of rat plasma)
Assay type: in vivo
Conditions: male, SD, rat, plasma, po, 3.7 g/kg, male rats, Day 1, high dose TAZF 3.7 g/kg by gavage; read-out: AUC0-t
Experimental: SD rats (5 ~ 6 weeks, 3/group/sex) were randomly allocated to three treatment groups and given the same dosage as those in the repeated toxicity experiment for 28 days. […] Carbamazepine was chosen as the internal standard (IS). The blood samples were centrifuged to obtain plasma. Then, 300 μL of acetonitrile containing 40 ng of IS was added to 100 μL of plasma. After vortexing for 1 min, the mixture was centrifuged at 17,000 rpm for 15 min at 4 °C. […]
Respond with a number, then the unit of measure.

Each compound below has a recorded value; state its AUC(0-t).
1. COc1cc2c(cc1O)CC[n+]1cc3c(OC)c(OC)ccc3cc1-2
2. COc1ccc2cc3[n+](cc2c1OC)CCc1cc2c(cc1-3)OCO2
3. COc1cc2c(cc1O)-c1cc3ccc(OC)c(OC)c3c[n+]1CC2

1: 101 ng·h/mL; 2: 1860 ng·h/mL; 3: 276 ng·h/mL

###

experiment: Toxicokinetics test in the satellite groups (UPLC-MS/MS of rat plasma); format: in vivo; conditions: male, SD, rat, plasma, po, male rats, Day 28, lowest dose (berberine 8.01, epiberberine 0.82, coptisine 1.38, palmatine 2.03, jatrorrhizine 0.31, columbamine 0.66 mg/kg)
Measured Endpoint: Tmax
Respond with a number, then the unit of measure.

COc1cc2c(cc1O)-c1cc3ccc(OC)c(OC)c3c[n+]1CC2; 49.8 min

Continue with the compound presented below.
Tmax for COc1cc2c(cc1O)CC[n+]1cc3c(OC)c(OC)ccc3cc1-2 ? 49.8 min
